Tested on: mouse trypsin (m-trypsin)
Construct: mouse trypsin (m-trypsin)
ASSAY_NAME: Trypsin inhibitory activity, mouse trypsin purified from small intestine contents, BZiPAR fluorescent substrate
Type: biochemical
ASSAY_SETUP: 30 min at room temperature
Where a name gives a salt, the structure may show the parent alone.
Labelling field: enter condition met if recorded IC50 is less than 0.5 nM. Enter condition not met if it equals or exceeds that cut-off.

Solved entries (count: 2):
Exercise: Check if IC50 falls below 0.5 nM for N=C(N)Nc1ccc(C(=O)Oc2ccc3c(C(=O)N(CC(=O)O)Cc4cccc(CC(=O)O)c4)cccc3c2)cc1 .
Solution: condition met

Exercise: How about this compound: N=C(N)Nc1ccc(C(=O)Oc2ccc3c(c2)CCC3CC(=O)N(CCC(=O)O)Cc2csc(C(=O)O)c2)cc1 (stereo not drawn)
Solution: condition met

***
Exercise: Please indicate whether the reported IC50 of N=C(N)Nc1ccc(C(=O)Oc2ccc3c(C(=O)N(CC(=O)O)Cc4csc(C(=O)O)c4)cccc3c2)cc1 is strictly below 0.5 nM.
Solution: condition met

Exercise: And what about the compound C[C@H](C(=O)O)N(Cc1csc(C(=O)O)c1)C(=O)CC1CCCc2cc(OC(=O)c3ccc(NC(=N)N)cc3)ccc21 (single isomer, unassigned) [Example 8] ?
Solution: condition not met

Exercise: Entry N=C(N)Nc1ccc(C(=O)Oc2ccc3c(c2)CCC(C(=O)N[C@@H](Cc2ccc(C(=O)O)cc2)C(=O)O)C3)cc1 (stereo partly drawn) please
Solution: condition met

Exercise: Check N=C(N)Nc1ccc(C(=O)Oc2ccc3c(c2)CCCC3CC(=O)N(CC(=O)O)Cc2csc(C(=O)O)c2)cc1 (stereo not drawn) too.
Solution: condition met

Exercise: Consider next the compound C[C@H](C(=O)O)N(Cc1csc(C(=O)O)c1)C(=O)CC1CCCc2cc(OC(=O)c3ccc(NC(=N)N)cc3)ccc21 (single isomer, unassigned) [Example 7] in the same way.
Solution: condition met

Exercise: Then N=C(N)Nc1ccc(C(=O)Oc2ccc3c(c2)OCC3CC(=O)N(CC(=O)O)Cc2cccc(C(=O)O)c2)cc1 (stereo not drawn) ?
Solution: condition not met

Exercise: Please answer likewise for N=C(N)Nc1ccc(C(=O)Oc2ccc3c(c2)CCC(C(=O)N(CC(=O)O)Cc2csc(C(=O)O)c2)C3)cc1 (stereo not drawn) [Example 4, monohydrochloride]
Solution: condition not met

Exercise: Now consider C[C@H](C(=O)O)N(Cc1csc(C(=O)O)c1)C(=O)c1cccc2cc(OC(=O)c3ccc(NC(=N)N)cc3)ccc12 and answer again.
Solution: condition met

Exercise: What do you have for N=C(N)Nc1ccc(C(=O)Oc2ccc3c(c2)CCC(C(=O)N(CC(=O)O)Cc2ccc4sc(C(=O)O)cc4c2)C3)cc1 (stereo not drawn) ?
Solution: condition met

Exercise: Next up: N=C(N)Nc1ccc(C(=O)Oc2ccc3cc(C(=O)N(CC(=O)O)Cc4csc(C(=O)O)c4)sc3c2)cc1
Solution: condition not met

Exercise: Same question, N=C(N)Nc1ccc(C(=O)Oc2ccc3c(c2)CCC3CC(=O)N(CC(=O)O)[C@@H](Cc2ccccc2)C(=O)O)cc1 (stereo partly drawn) this time
Solution: condition met

Exercise: Can you check N=C(N)Nc1ccc(C(=O)Oc2ccc3cc(C(=O)N(CC(=O)O)[C@@H](Cc4ccccc4)C(=O)O)ccc3c2)cc1 next?
Solution: condition met

Exercise: Now try N=C(N)Nc1ccc(C(=O)Oc2ccc3c(CC(=O)N(CC(=O)O)Cc4cccc(C(=O)O)c4)coc3c2)cc1 .
Solution: condition not met

----------
System: mouse trypsin (m-trypsin)
Construct: mouse trypsin (m-trypsin)
ASSAY_NAME: Trypsin inhibitory activity, mouse trypsin purified from small intestine contents, BZiPAR fluorescent substrate
Type: biochemical
ASSAY_SETUP: 30 min at room temperature
Exercise: for every item that follows, state its recorded pIC50.
Give bare numbers, as −log10 of the molar value.

Exercise: Need pIC50 of N=C(N)Nc1ccc(C(=O)Oc2ccc3cc(C(=O)N(CCC(=O)O)Cc4csc(C(=O)O)c4)ccc3c2)cc1 [Example 56] , thanks.
Solution: 9.23

Exercise: N=C(N)Nc1ccc(C(=O)Oc2ccc3c(c2)CCC(C(=O)N(CC(=O)O)Cc2cccc(C(=O)O)c2)C3)cc1 (stereo not shown) [Example 58] ?
Solution: 9.13

Exercise: Okay, and N=C(N)Nc1ccc(C(=O)Oc2ccc3c(c2)CCCC3CC(=O)N(CCc2ccc(C(=O)O)cc2)CC(=O)O)cc1 (stereo not shown) [Example 28] ?
Solution: 9.40

Now examine the next entry.
Exercise: GET /values?readout=pIC50&item= N=C(N)Nc1ccc(C(=O)Oc2ccc3c(C(=O)N(CC(=O)O)Cc4ccc(CC(=O)O)cc4)cccc3c2)cc1 [Example 17]
Solution: 9.57

----------
STUDY_SYSTEM: human recombinant trypsin (rh-trypsin) (Homo sapiens, UniProt P07477)
ASSAY_NAME: Trypsin inhibitory activity, human recombinant trypsin, BZiPAR fluorescent substrate
ASSAY_SETUP: 30 min at room temperature, read-out: r-h Trypsin inhibitory activity (IC50)
Where a name gives a salt, the structure may show the parent alone.
What IC50 was measured for each of the following?
One number for each entry, in pM.

Exercise: What does the record list as IC50 for N=C(N)Nc1ccc(C(=O)Oc2ccc3c(C(=O)N(CCC(=O)O)Cc4csc(C(=O)O)c4)cccc3c2)cc1 ?
Solution: 170

Exercise: Field entry: N=C(N)Nc1ccc(C(=O)Oc2ccc3c(c2)CCC(C(=O)N(CCC(=O)O)Cc2csc(C(=O)O)c2)C3)cc1 (centres unmarked)
Solution: 360

Exercise: Follow-up entry: N=C(N)Nc1ccc(C(=O)Oc2ccc3cc(C(=O)N(CCC(=O)O)Cc4csc(C(=O)O)c4)ccc3c2)cc1
Solution: 350

Exercise: And for N=C(N)Nc1ccc(C(=O)Oc2ccc3c(C(=O)N(CC(=O)O)Cc4ccc(CC(=O)O)cc4)cccc3c2)cc1 ?
Solution: 220

Exercise: Could you do the same for N=C(N)Nc1ccc(C(=O)Oc2ccc3c(C(=O)N(CC(=O)O)Cc4cccc(C(=O)O)c4)csc3c2)cc1 , please?
Solution: 330

Exercise: What do you get for N=C(N)Nc1ccc(C(=O)Oc2ccc3c(c2)CCCC3CC(=O)N(CC(=O)O)Cc2cccc(C(=O)O)c2)cc1 (single isomer, unassigned) ?
Solution: 190

Exercise: Continue with C[C@H](C(=O)O)N(Cc1csc(C(=O)O)c1)C(=O)CC1CCCc2cc(OC(=O)c3ccc(NC(=N)N)cc3)ccc21 (single isomer, unassigned) [Example 8]
Solution: 430

Exercise: Param item: N=C(N)Nc1ccc(C(=O)Oc2ccc3c(C(=O)N(CC(=O)O)[C@@H](Cc4ccccc4)C(=O)O)cccc3c2)cc1
Solution: 290

Exercise: Another compound to look at: N=C(N)Nc1ccc(C(=O)Oc2ccc3c(C(=O)N(CC(=O)O)Cc4csc(C(=O)O)c4)cccc3c2)cc1
Solution: 190

Exercise: Query N=C(N)Nc1ccc(C(=O)Oc2ccc3cc(C(=O)N(CC(=O)O)[C@@H](Cc4ccccc4)C(=O)O)ccc3c2)cc1 next
Solution: 180

Items follow; give IC50 for each.
1. C[C@H](C(=O)O)N(Cc1csc(C(=O)O)c1)C(=O)C1CCc2cc(OC(=O)c3ccc(NC(=N)N)cc3)ccc2C1 (some centres unmarked)
2. N=C(N)Nc1ccc(C(=O)Oc2ccc3c(c2)CCC(C(=O)N(CC(=O)O)Cc2csc(C(=O)O)c2)C3)cc1 (centres unmarked) [Example 4, monohydrochloride]
3. N=C(N)Nc1ccc(C(=O)Oc2ccc3c(c2)CCC(C(=O)N(CC(=O)O)Cc2cccc(C(=O)O)c2)C3)cc1 (centres unmarked)
4. N=C(N)Nc1ccc(C(=O)Oc2ccc3c(c2)CCC3CC(=O)N(CC(=O)O)Cc2cccc(C(=O)O)c2)cc1 (centres unmarked)

Solution:
380
430
680
310

----------
System: mouse trypsin (m-trypsin)
Construct: mouse trypsin (m-trypsin)
ASSAY_NAME: Trypsin inhibitory activity, mouse trypsin purified from small intestine contents, BZiPAR fluorescent substrate
Format: biochemical
ASSAY_SETUP: 30 min at room temperature
Counter-ions that a name gives are not always drawn.
PROPERTY_NAME: IC50 (nM)
Numbers only, in nM.

Example entries and their recorded answers appear below.
Exercise: Need IC50, item N=C(N)Nc1ccc(C(=O)Oc2ccc3c(c2)CCCC3CC(=O)N(Cc2ccccc2)CC(CC(=O)O)CC(=O)O)cc1 (stereo not shown) [Example 44]
Solution: 0.2

Exercise: Next record, please: N=C(N)Nc1ccc(C(=O)Oc2ccc3c(c2)CCC(C(=O)N(CC(=O)O)Cc2ccc(CC(=O)O)cc2)C3)cc1 (stereo not shown) [Example 20]
Solution: 0.77

Exercise: What do you get for N=C(N)Nc1ccc(C(=O)Oc2ccc3c(C(=O)N[C@@H](Cc4ccc(C(=O)O)cc4)C(=O)O)cccc3c2)cc1 [Example 3, monohydrochloride] ?
Solution: 0.22

Exercise: Try this compound next: N=C(N)Nc1ccc(C(=O)Oc2ccc3c(c2)CCC3CC(=O)N[C@@H](Cc2ccc(C(=O)O)cc2)C(=O)O)cc1 (stereo partly shown) [Example 53]
Solution: 0.6

Exercise: Record: N=C(N)Nc1ccc(C(=O)Oc2ccc3c(c2)CCCC3CC(=O)N[C@@H](Cc2ccc(C(=O)O)cc2)C(=O)O)cc1 (stereo partly shown) [Example 36]
Solution: 0.28

Exercise: Please answer likewise for Cl.N=C(N)Nc1ccc(C(=O)Oc2ccc3c(c2)CCCC3CC(=O)N(CC(=O)O)Cc2cccc(C(=O)O)c2)cc1 (single isomer, unassigned) [Example 6]
Solution: 0.2

Exercise: Next up: C[C@H](C(=O)O)N(Cc1csc(C(=O)O)c1)C(=O)C1CCc2cc(OC(=O)c3ccc(NC(=N)N)cc3)ccc2C1 (stereo partly shown) [Example 21]
Solution: 0.52

Exercise: Continue with C[C@H](C(=O)O)N(Cc1csc(C(=O)O)c1)C(=O)c1csc2cc(OC(=O)c3ccc(NC(=N)N)cc3)ccc12 [Example 29]
Solution: 0.23

Batch of 5 compounds: report IC50 for each.
1. N=C(N)Nc1ccc(C(=O)Oc2ccc3c(c2)CCCC3CC(=O)N(CC(=O)O)Cc2cccc(C(=O)O)c2)cc1 (single isomer, unassigned) [Example 5]
2. N=C(N)Nc1ccc(C(=O)Oc2ccc3c(C(=O)N[C@@H](Cc4ccc(C(=O)O)cc4)C(=O)O)csc3c2)cc1 [Example 47]
3. N=C(N)Nc1ccc(C(=O)Oc2ccc3c(c2)CCC3CC(=O)N(CC(=O)O)Cc2csc(C(=O)O)c2)cc1 (stereo not shown) [Example 49]
4. N=C(N)Nc1ccc(C(=O)Oc2ccc3c(C(=O)N(CCC(=O)O)Cc4csc(C(=O)O)c4)csc3c2)cc1 [Example 54]
5. N=C(N)Nc1ccc(C(=O)Oc2ccc3c(c2)CCC3CC(=O)N(CC(=O)O)Cc2cccc(C(=O)O)c2)cc1 (stereo not shown) [Example 11]

Solution:
0.27
0.29
0.45
0.46
0.68

Each recorded value in this set is attributed to patent US9969709B2.
